test-summary: chemical genetic growth profiling, strain panel (AID 1159580);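 further: tested at 20 µM; growth read once vehicle control cultures reached saturation at 30 °C; 1 = growth at the plate median or of vehicle wells; lower values mean less growth of the strain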
run-parameters: S. cerevisiae deletion strains, growth OD, locus YLR371W, strain rom2, stronger effect = lower value
The campaign covered roughly 5,500 compounds. About 2,000 (36%) were called active. Inconclusive results (about 18%) are left out. Some of the results follow.
observed-property: normalized growth
Write the value as a bare number.

Use the examples below as a reference point.
CC1=C(CC(=O)O)c2cc(F)ccc2/C1=C\c1ccc(S(C)=O)cc1 (centres undefined) ... 1.03
C[C@]12CCC(=O)C=C1CCC1C2CC[C@@]2(C)C1CC[C@@H]2O (some centres undefined) ... 1.02
COCCc1ccc(OCC(O)CNC(C)C)cc1 (centres undefined) ... 1.01
COc1ccc2c(c1)OCc1c-2oc2cc(OC)ccc12 ... 1.01
CN(C)c1ccc(C(=C2C=CC(=[N+](C)C)C=C2)c2ccc(N(C)C)cc2)cc1 ... 0.489

// normalized growth value for CCC(=O)O[C@H]1CCC2C3CCC4=CC(=O)CC[C@]4(C)C3CC[C@@]21C (some centres undefined) : 0.783

Note to self: normalized growth recorded for "COc1cc2c(cc1OC)[C@@H]1C(=O)c3ccc(O)c(CC=C(C)C)c3O[C@@H]1CO2" was 1.02

OCCN1C[C@@H](O)[C@@H](O)C(O)C1CO (some centres undefined) has a reported normalized growth of 0.995

* * *

Let's look at some compounds and their measured normalized growth.
test-summary: chemical genetic growth profiling, strain panel (AID 1159580)
run-parameters: S. cerevisiae deletion strains, growth OD, locus YGL078C, strain dbp3, stronger effect = lower value
About 2,000 (36%) of roughly 5,500 compounds were called active. Another 18% or so got no clear call; they are omitted. The list shows a part of the results.
Quick one: just the number, no unit, thanks!

Summary for this compound, "COc1ccc2c(C)cc(=O)oc2c1" : normalized growth is 1.03

Measured normalized growth, "CNCCc1ccccn1" : 1.01

// sample CCS(=O)CCSP(=O)(OC)OC (centres undefined) , its normalized growth was 1.01

Reported normalized growth of "O=C(CC[N+](=O)[O-])OC[C@H]1O[C@@H](O)[C@H](OC(=O)CC[N+](=O)[O-])[C@@H](OC(=O)CC[N+](=O)[O-])[C@@H]1OC(=O)CC[N+](=O)[O-]" : 1

Lab book: normalized growth of C[C@]12CCC(=O)C=C1CCC1C2CC[C@@]2(C)C1CC[C@@H]2O (some centres undefined) noted as 0.985

Entry C=Cc1c2[nH]c(c1C)C=c1[nH]c(c(C)c1C=C)=CC1N=C(C=c3[nH]c(c(C)c3CCC(=O)O)=C2)C(CCC(=O)O)=C1C (centres undefined) ; normalized growth = 1.02

Form: compound = C[C@H]1CC2C([C@@H](O)C[C@@]3(C)C2CC[C@]3(O)C(=O)CO)[C@@]2(C)C=CC(=O)C=C12 (some centres undefined) ; normalized growth = 1.02

get_value(item= CC(=O)C1CCC2C3CC(=O)C4=CC(=O)CCC4(C)C3CCC12C (centres undefined) , readout=normalized growth) returns 0.979

Reported normalized growth for CCC(=O)O[C@H]1CCC2C3CCC4=CC(=O)CC[C@]4(C)C3CC[C@@]21C (some centres undefined) was 0.984

* * *

test-summary: chemical genetic growth profiling, strain panel (AID 1159580)
run-parameters: S. cerevisiae deletion strains, growth OD, locus YER167W, strain BCK2, stronger effect = lower value
Out of some 5,500 compounds screened, about 2,000 (36%) were called active. Roughly 18% stayed inconclusive and do not appear here. The list shows a part of the results.
Just a reminder that ties go to label 0: only normalized growth strictly below 1 counts as label 1.

C[C@]12CCC(=O)C=C1CCC1C2CC[C@@]2(C)C1CC[C@@H]2O (some centres undefined) ... label 0
CC(=O)[C@H]1CCC2C3CCC4=CC(=O)CC[C@]4(C)C3CC[C@@]21C (some centres undefined) ... label 1
COc1cc2c(cc1OC)C(=O)OC2 ... label 0
CCC(=O)O[C@H]1CCC2C3CCC4=CC(=O)CC[C@]4(C)C3CC[C@@]21C (some centres undefined) ... label 1

For this compound, is normalized growth lower than 1? "CC(=O)c1c(O)c(C)c(O)c2c1oc1c(C(C)=O)c(O)c(C)c(O)c12"
label 1

* * *

test-summary: chemical genetic growth profiling, strain panel (AID 1159580);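 further: tested at 20 µM; growth read once vehicle control cultures reached saturation at 30 °C; 1 = growth at the plate median or of vehicle wells; lower values mean less growth of the strain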
run-parameters: S. cerevisiae deletion strains, growth OD, locus YML120C, strain ndi1, stronger effect = lower value
The campaign covered roughly 5,500 compounds. About 2,000 (36%) were called active. Not shown: some 18% with an inconclusive outcome. Some of the results follow.
observed-property: normalized growth

Check out these entries, answers already filled in.
COc1cc2c(cc1OC)[C@@H]1C(=O)c3ccc4oc(C(C)C)cc4c3O[C@@H]1CO2 ... 0.99 (inactive)
COc1ccc2cc([C@H](C)CO)ccc2c1 ... 1.01 (inactive)
COc1ccc2c(C)cc(=O)oc2c1 ... 1.02 (inactive)
COc1cc2c(cc1OC)[C@@H]1C(=O)c3ccc(O)c(CC=C(C)C)c3O[C@@H]1CO2 ... 0.976 (inactive)
C=Cc1c2[nH]c(c1C)C=c1[nH]c(c(C)c1C=C)=CC1N=C(C=c3[nH]c(c(C)c3CCC(=O)O)=C2)C(CCC(=O)O)=C1C (stereo unspecified) ... 1.01 (inactive)
COc1ccc(OC)c(C(O)C(C)N)c1 (stereo unspecified) ... 0.997 (inactive)
CCOC(=O)C(Cc1ccc(O)cc1)NC(C)=O (stereo unspecified) ... 1.01 (inactive)
S=c1nc[nH]c2nc[nH]c12 ... 0.986 (inactive)

Consider "COc1ccc2cc([C@H](C)C(=O)O)ccc2c1" . Its measured normalized growth is 0.99 (inactive)

For record "COc1ccc2c(c1)OCc1c-2oc2cc(OC)ccc12" the listed normalized growth is 0.842 (active)

Query "COc1cc2c(cc1OC)[C@@H]1C(=O)c3ccc4c(c3O[C@@H]1CO2)C=CC(C)(C)O4" yields normalized growth of 0.979 (inactive)

* * *

test-summary: chemical genetic growth profiling, strain panel (AID 1159580);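 further: tested at 20 µM; growth read once vehicle control cultures reached saturation at 30 °C; 1 = growth at the plate median or of vehicle wells; lower values mean less growth of the strain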
run-parameters: S. cerevisiae deletion strains, growth OD, locus YNL250W, strain rad50, stronger effect = lower value
Hit rate of the full screen: of about 5,500 compounds, about 2,000 (36%) were called active. Not shown: some 18% with an inconclusive outcome. The list shows a part of the results.
Reported normalized growth values are given for each entry in this list.

Worked examples, 3 compounds total:
Cc1cc(O)c(C)c(O)c1C(=O)O ... 0.946 (inactive)
CC1CC2C3CCC4=CC(=O)C=C[C@]4(C)[C@@]3(F)[C@@H](O)C[C@]2(C)[C@@]1(O)C(=O)CO (stereo partly specified) ... 0.962 (inactive)
NCC1CCC(C(=O)O)CC1 (stereo unspecified) ... 0.979 (inactive)

GET /value?item= "CC(=O)N[C@@H](CC(C)C)C(=O)O" &field=normalized growth returns 0.96 (inactive)

The measured normalized growth associated with "C[N+](C)(C)CCCCCC[N+](C)(C)C" reads 0.957 (inactive)

Summary for this compound, CCS(=O)CCSP(=O)(OC)OC (stereo unspecified) : normalized growth is 1.01 (inactive)

Form: compound = "Cc1cc(O)c(C=O)c(O)c1C(=O)O" ; normalized growth = 0.986 (inactive)

Form field normalized growth, entry COCCc1ccc(OCC(O)CNC(C)C)cc1 (stereo unspecified) : 1.01 (inactive)

// CC1=C(C(C)O)C2=NC1C=c1[nH]c(c(C)c1C(C)O)=Cc1[nH]c(c(CCC(=O)O)c1C)C=c1[nH]c(c(C)c1CCC(=O)O)=C2 (stereo unspecified) : normalized growth value = 1.03 (inactive)

The compound listed as "CC(C)(O)[C@@H]1[C@H]2OC(=O)[C@@H]1[C@]1(O)C[C@H]3O[C@]34C(=O)O[C@H]2[C@]14C" shows normalized growth equal to 1 (inactive)

// normalized growth value for "O=C(CC[N+](=O)[O-])OC[C@H]1O[C@@H](O)[C@H](OC(=O)CC[N+](=O)[O-])[C@@H](OC(=O)CC[N+](=O)[O-])[C@@H]1OC(=O)CC[N+](=O)[O-]" : 0.995 (inactive)

* * *

test-summary: chemical genetic growth profiling, strain panel (AID 1159580);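 further: tested at 20 µM; growth read once vehicle control cultures reached saturation at 30 °C; 1 = growth at the plate median or of vehicle wells; lower values mean less growth of the strain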
run-parameters: S. cerevisiae deletion strains, growth OD, locus YNR052C, strain pop2, stronger effect = lower value
About 2,000 (36%) of roughly 5,500 compounds were called active. Inconclusive results (about 18%) are left out. The list shows a part of the results.
# normalized growth listing for each entry below
Please reply with the value in numeric form only.

Example compounds with recorded normalized growth:
CCOC(=O)c1c(C)cc(O)c(C=O)c1O ... 0.155
O=C(O)c1cc2ccccc2[nH]1 ... 1.02
CCOC(=O)c1c(C)cc(O)c(C)c1O ... 0.993
O=C(O)c1cc2ccccc2c(Cc2c(O)c(C(=O)O)cc3ccccc23)c1O ... 0.981
COc1ccc2c3c1O[C@H]1C[C@@H](O)C=C[C@@]31CCN(C)C2 ... 1.02
NCC1CCC(C(=O)O)CC1 (configuration not stated) ... 0.985

# input for lookup
Per the record, Cc1cccc(C)c1OCC(C)N (configuration not stated) has normalized growth of 0.977
